assay: Cell Viability - LYMP2-004 (AID 966); details: LYMP2-004 lymphoblastoid cell viability, qHTS; series mostly up to 92.2 µM;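 further: cells exposed to compound for 24 h; nearly all actives have a fitted effect of over 65% in size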
Results filed as inconclusive are left out. The source made the active and inactive calls. The call rests on the fitted dose curve; in most records, active means well fitted cell-killing curve with a large enough effect; inconclusive means small, poorly fitted or top-dose-only effect, or effect the other way; inactive means no such curve, though single readings can be large or run the other way.
Just give me one of these, please: active, inactive

**Query** Which result was noted for this compound in the test: COc1cccc2c1C(=O)c1c(O)c3c(c(O)c1C2=O)C[C@@](O)(C(=O)CO)C[C@@H]3O[C@H]1C[C@H](N)[C@H](O)[C@H](C)O1
**Result** active

**Query** Which result was noted for this compound in the test: CC/C(=C(/CC)c1ccc(O)cc1)c1ccc(O)cc1
**Result** inactive

**Query** Which result was noted for this compound in the test: COC1=CC(=O)C[C@@H](C)[C@]12Oc1c(Cl)c(OC)cc(OC)c1C2=O
**Result** inactive

***
**Query** Which result was noted for this compound in the test: O=c1ccc2ccccc2o1
**Result** inactive

**Query** Which result was noted for this compound in the test: C[C@]12CC[C@@H]3c4ccc(O)cc4CC[C@H]3[C@@H]1CC[C@@H]2O
**Result** inactive

**Query** Which result was noted for this compound in the test: Oc1ccc(O)cc1
**Result** active

**Query** Which result was noted for this compound in the test: CC(C)(C)CC(C)(C)c1ccc(OCCOCC[N+](C)(C)Cc2ccccc2)cc1
**Result** active

**Query** Which result was noted for this compound in the test: O=C(O)CCCCC(=O)O
**Result** inactive

**Query** Which result was noted for this compound in the test: CC(O)C(=O)O (stereo unspecified)
**Result** inactive

**Query** Which result was noted for this compound in the test: CC(=O)Oc1ccc(C(c2ccc(OC(C)=O)cc2)c2ccccn2)cc1
**Result** inactive

**Query** Which result was noted for this compound in the test: C=CCc1ccc(O)c(OC)c1
**Result** inactive

###

test system: JCK; test: qHTS profiling for inhibitors of Plasmodium falciparum proliferation (AID 504749); further: nearly all actives have a fitted effect of over 60% in size; further: potency means the concentration at half of the fitted maximal effect; conditions: P. falciparum in erythrocytes, SYBR Green DNA, 72 h; series mostly up to 28.7 µM
Inconclusive results are not listed. Activity calls are given as the source filed them. Calls come from the whole dose curve; as a rule, active = well fitted inhibition curve with a large enough effect; inconclusive = small, poorly fitted or top-dose-only effect; inactive = flat fitted curve, though single readings scatter.
readout-name: Potency

**Query** Please report Potency with JCK for item CN1C2CCC1CC(OC(=O)c1c[nH]c3ccccc13)C2 (stereo not drawn) .
**Result** inactive

**Query** Please report Potency with JCK for item CC(C)COC(=O)OCN1C(=O)CN(CCN2CC(=O)N(COC(=O)OCC(C)C)C(=O)C2)CC1=O .
**Result** inactive

**Query** Please report Potency with JCK for item CN=C(NC#N)NCCSCc1csc(N=C(N)N)n1 .
**Result** inactive

**Query** Please report Potency with JCK for item CCCCc1nc(Cl)c(CO)n1Cc1ccc(-c2ccccc2-c2nn[nH]n2)cc1 .
**Result** inactive

**Query** Please report Potency with JCK for item COC1=CC(=O)C[C@@H](C)[C@]12Oc1c(Cl)c(OC)cc(OC)c1C2=O .
**Result** inactive

// batch mode: one Potency value per listed entry
1. Cc1c(C)n(CCN(C)C)c2ccc(C(=O)OCCN(C)C)cc12
2. CCC(C(=O)OCCN(CC)CC)c1ccccc1 (stereo not drawn)
3. COc1cccc(CCc2ccccc2OCC(CN(C)C)OC(=O)CCC(=O)O)c1 (stereo not drawn)

**Result**
1: inactive; 2: inactive; 3: 10 µM (active)

// batch mode: one Potency value per listed entry
1. CC(C)(CO)[C@@H](O)C(=O)NCCCO
2. C[C@@H]1C[C@H]2[C@@H]3CCC4=CC(=O)C=C[C@]4(C)[C@@]3(F)[C@@H](O)C[C@]2(C)[C@H]1C(=O)CO
3. C[N+]1(CCCCC[N+]2(C)CCCC2)CCCC1
4. CN1C(CCl)Nc2cc(Cl)c(S(N)(=O)=O)cc2S1(=O)=O (stereo not drawn)
5. CCN(CCCc1ccccc1)CCCc1ccccc1

**Result**
1: inactive; 2: inactive; 3: inactive; 4: inactive; 5: inactive

// batch mode: one Potency value per listed entry
1. C[C@@H](CN(C)C)CN1c2ccccc2Sc2ccccc21
2. O=C(O)c1cc2cc(Cc3cccnc3)ccc2o1
3. Cc1ncc(CSSCc2cnc(C)c(O)c2CO)c(CO)c1O
4. CC[N+](CC)(CCNC(=O)C(=O)NCC[N+](CC)(CC)Cc1ccccc1Cl)Cc1ccccc1Cl

**Result**
1: inactive; 2: inactive; 3: inactive; 4: 10 µM (active)

###

assay: qHTS of pediatric cancer cell lines to identify multiple opportunities for drug repurposing: Primary screen for A673 cells (AID 1347092); settings: A673 Ewing sarcoma viability, CellTiter-Glo ATP luminescence, 48 h; series mostly up to 46 µM; further: nearly all actives have a fitted effect of over 45% in size
Results filed as inconclusive are left out. Activity calls are given as the source filed them. Calls follow the shape of the dose curve; as a rule, active = well fitted cell-killing curve with a large enough effect; inconclusive = small, poorly fitted or top-dose-only effect; inactive = no such curve, though single readings can be large or run the other way.
Just give me one of these, please: active, inactive

Please review the entries below; each comes with its answer.
**Query** Which result was noted for this compound in the test: C[C@]12CC[C@H]3[C@@H](CCC4=CC(=O)CC[C@@]43C)[C@@H]1CC[C@@H]2C(=O)CO
**Result** inactive

**Query** Which result was noted for this compound in the test: CC(C)n1nc(-c2cc3cc(O)ccc3[nH]2)c2c(N)ncnc21
**Result** active

**Query** Which result was noted for this compound in the test: O=c1[nH]c(=O)n([C@H]2C[C@H](O)[C@@H](CO)O2)cc1C(F)(F)F
**Result** active

**Query** Which result was noted for this compound in the test: C[C@]12C=CC(=O)C=C1CC[C@@H]1[C@@H]2[C@@H](O)C[C@@]2(C)[C@H]1CC[C@]2(O)C(=O)CO
**Result** inactive

**Query** Which result was noted for this compound in the test: COc1cc2c(cc1OC)C(=O)C(CC1CCN(Cc3ccccc3)CC1)C2 (stereo unspecified)
**Result** inactive

**Query** Which result was noted for this compound in the test: Cc1c(C(N)=O)cc([N+](=O)[O-])cc1[N+](=O)[O-]
**Result** inactive

**Query** Which result was noted for this compound in the test: CC(C)COC(=O)c1ccc(N)cc1
**Result** inactive

**Query** Which result was noted for this compound in the test: CNC(=O)CN(CCN(CCN(CC(=O)[O-])CC(=O)NC)CC(=O)[O-])CC(=O)[O-].O.[Gd+3]
**Result** inactive

**Query** Which result was noted for this compound in the test: CC(=O)OCC(=O)[C@@]1(O)[C@H](C)C[C@H]2[C@@H]3CCC4=CC(=O)C=C[C@]4(C)[C@@]3(F)[C@@H](O)C[C@@]21C
**Result** inactive

**Query** Which result was noted for this compound in the test: COc1cc2c(cc1OC)C(C(C(=O)N(CCc1ccc(OC)c(OC)c1OC)CCc1ccc(OC)c(OC)c1OC)c1ccccc1)=NCC2 (stereo unspecified)
**Result** inactive

***
**Query** Which result was noted for this compound in the test: NC(CO)(CO)CO
**Result** inactive

**Query** Which result was noted for this compound in the test: CCOC(=O)COc1ccc2c(C)c(CCN(CC)CC)c(=O)oc2c1Cl
**Result** inactive

**Query** Which result was noted for this compound in the test: CO/N=C1\CN(c2nc3c(cc2F)c(=O)c(C(=O)O)cn3C2CC2)CC1CN (stereo unspecified)
**Result** inactive

**Query** Which result was noted for this compound in the test: CN(C)CC/C=C1/c2ccccc2COc2ccc(CC(=O)O)cc21
**Result** inactive

**Query** Which result was noted for this compound in the test: CN(C)C(=S)SC(=S)N(C)C
**Result** active

**Query** Which result was noted for this compound in the test: CCOc1ccc(NC(=O)CC(C)O)cc1 (stereo unspecified)
**Result** inactive

**Query** Which result was noted for this compound in the test: CCCC(=O)Nc1ccc(OCC(O)CNC(C)C)c(C(C)=O)c1 (stereo unspecified)
**Result** inactive

**Query** Which result was noted for this compound in the test: CCOC(=O)[C@H](CCc1ccccc1)N[C@@H](C)C(=O)N1Cc2ccccc2C[C@H]1C(=O)O
**Result** inactive

**Query** Which result was noted for this compound in the test: CC(=O)CC(c1ccc([N+](=O)[O-])cc1)c1c(O)c2ccccc2oc1=O (stereo unspecified)
**Result** inactive

**Query** Which result was noted for this compound in the test: CC(=O)Nc1c(I)cc(I)c(C(=O)O)c1I
**Result** inactive

**Query** Which result was noted for this compound in the test: Cc1ccnc(NS(=O)(=O)c2ccc(N)cc2)n1
**Result** inactive

###

tested on: CP291; assay: qHTS profiling for inhibitors of Plasmodium falciparum proliferation (AID 504749); further: nearly all actives have a fitted effect of over 60% in size; details: P. falciparum in erythrocytes, SYBR Green DNA, 72 h; series mostly up to 28.7 µM
Inconclusive results are not listed. Active and inactive are the calls of the source. Calls follow the shape of the dose curve; as a rule, active = well fitted inhibition curve with a large enough effect; inconclusive = small, poorly fitted or top-dose-only effect; inactive = flat fitted curve, though single readings scatter. Numbered stars: 1 amine (or outer) side, 2 acyl side, 3 side chain; on linkers, the order of the positions; unused ones are H or OH. Bridge positions count the residues as written; N and C are the ends. Square brackets hold non-standard residues; d marks the D form. Peptide text beside a SMILES is read from it. I, II: the chains in the order shown. Actinocin(9to1) = Cc1c2oc3c(C)ccc(C(=O)[*:1])c3nc-2c(C(=O)[*:2])c(N)c1=O; NMeV = CN[C@H](C(=O)O)C(C)C; Sar = CNCC(=O)O
Just give me one of these, please: active, inactive

Please review the entries below; each comes with its answer.
**Query** Which result was noted for this compound in the test: CCCn1c(=O)[nH]c(=O)c2[nH]cnc21
**Result** inactive

**Query** Which result was noted for this compound in the test: COc1cc2c(cc1OC)C(C(C(=O)N(CCc1ccc(OC)c(OC)c1OC)CCc1ccc(OC)c(OC)c1OC)c1ccccc1)=NCC2 (stereo unspecified)
**Result** active

**Query** Which result was noted for this compound in the test: Cc1c2oc3c(C)ccc(C(=O)N[C@@H]4C(=O)N[C@H](C(C)C)C(=O)N5CCC[C@H]5C(=O)N(C)CC(=O)N(C)[C@@H](C(C)C)C(=O)O[C@@H]4C)c3nc-2c(C(=O)N[C@@H]2C(=O)N[C@H](C(C)C)C(=O)N3CCC[C@H]3C(=O)N(C)CC(=O)N(C)[C@@H](C(C)C)C(=O)O[C@@H]2C)c(N)c1=O (I: T[dV]P[Sar][NMeV] / II: T[dV]P[Sar][NMeV]; ester I:1-I:C, II:1-II:C; linker I:N-II:N via Actinocin(9to1))
**Result** active

**Query** Which result was noted for this compound in the test: Nc1ccc(C(=O)O)cc1
**Result** inactive

**Query** Which result was noted for this compound in the test: Cc1cc(N)c2cc(NC(=O)Nc3ccc4nc(C)cc(N)c4c3)ccc2n1
**Result** active

**Query** Which result was noted for this compound in the test: COC1=CC(=O)C[C@@H](C)[C@]12Oc1c(Cl)c(OC)cc(OC)c1C2=O
**Result** inactive

***
**Query** Which result was noted for this compound in the test: COc1cc(OC)cc(OC)c1
**Result** inactive

**Query** Which result was noted for this compound in the test: Cc1c(C)n(CCN(C)C)c2ccc(C(=O)OCCN(C)C)cc12
**Result** inactive

**Query** Which result was noted for this compound in the test: CCCCN1CCCC1C(=O)Nc1c(C)cc(C)cc1C (stereo unspecified)
**Result** inactive

**Query** Which result was noted for this compound in the test: Oc1ccc(Cl)cc1Sc1cc(Cl)ccc1O
**Result** inactive

**Query** Which result was noted for this compound in the test: CC(C)(C)CC(C)(C)c1ccc(O)c(Cc2ccc(Cl)cc2Cl)c1
**Result** active
